The measurements presented in this section are drawn from the supplement of paper PMC10646978.

Below is a list of entries, each paired with its recorded viability score value.
- Test system: RAW-Dual (murine macrophage reporter line)
- methodSummary: viability score (confluency relative to resting cells, overnight) (fraction); higher = more viable, active = viable (0.7 or more)
- conditionsUsed: modulator concentration 10 µM
Reply briefly: the number, and no unit.

# annotated cases, reported viability score shown
CNC(=NC#N)NCCSCc1nc[nH]c1C	1.03
Cn1cnc([N+](=O)[O-])c1Sc1ncnc2nc[nH]c12	0.983
CCC1SC(=NN=Cc2cccc3ccccc23)NC1=O (stereo unspecified)	1
Clc1cccc(C=Cc2nn3c(Cc4ccccc4)nnc3s2)c1	0.987
CC(O)(CNC(=O)CSc1ccc(F)cc1)c1ccc(-c2ccccc2)cc1 (stereo unspecified)	0.992

Entry CN(C)c1cncc(OC2CCN(S(C)(=O)=O)C2)n1 (stereo unspecified) needs its viability score filled in; supply it. 1.01

* * *

- Test system: RAW-Dual (murine macrophage reporter line)
- methodSummary: NF-kB reporter (SEAP) activity fold change vs agonist alone; higher = enhanced NF-kB activity
- conditionsUsed: modulator concentration 10 µM; agonist: LPS 0.1 ug/mL
valueKind: NF-kB reporter
Reply briefly: the number, and no unit.

Cc1nc(-c2ccc(OCC(C)C)c(C#N)c2)sc1C(=O)O	0.957
CC(=C(C#N)C(=O)NCc1ccccc1)N(C)C	0.883
O=C(NCCCCNC(=O)c1cncc(Br)c1)c1cncc(Br)c1	0.973
Oc1ccc(C=NCc2ccccc2)cc1	1.08
CCOC(=O)C(Oc1ccc2c(c1)oc(=O)c1cc(OC)ccc12)c1ccccc1 (stereo unspecified)	0.998

Entry Cc1cc(I)cc2c1NC(c1cccc([N+](=O)[O-])c1)C1CC=CC21 (stereo unspecified) needs its NF-kB reporter filled in; supply it. 0.795

* * *

Below is a list of entries, each paired with its recorded NF-kB reporter value.
- System: RAW-Dual (murine macrophage reporter line)
- methodSummary: NF-kB reporter (SEAP) activity fold change vs agonist alone; higher = enhanced NF-kB activity
- conditionsUsed: modulator concentration 10 µM; agonist: LPS 0.1 ug/mL
Reply briefly: the number, and no unit.

# annotated cases, reported NF-kB reporter shown
O=c1oc2cc(O)ccc2s1	1.02
O=C(c1csc(-c2ccccc2)n1)N1CCCN(C2CCC2)CC1	1.17
Cl.Nc1c2c(nc3ccccc13)CCCC2	0.751

Entry CC(C)(C)NCC(O)COc1cccc2c1CC(O)C(O)C2 (configuration not stated) needs its NF-kB reporter filled in; supply it. 1

Entry c1ccc(CCn2c3ccccc3c3nnc(SCCN4CCCCC4)nc32)cc1 needs its NF-kB reporter filled in; supply it. 1.05

Entry O=C(Nc1ccncc1)c1ccc(OCC2CCOCC2)nc1 needs its NF-kB reporter filled in; supply it. 1.39

Entry CN1CCCC(n2nc(Cc3ccc(Cl)cc3)c3ccccc3c2=O)CC1.Cl (configuration not stated) needs its NF-kB reporter filled in; supply it. 0.929

Entry O=[N+]([O-])c1ccc2nc(S)sc2c1 needs its NF-kB reporter filled in; supply it. 1.11

* * *

Below is a list of entries, each paired with its recorded IRF reporter value.
- Test system: RAW-Dual (murine macrophage reporter line)
- methodSummary: IRF reporter (Lucia luciferase) activity fold change vs agonist alone; higher = enhanced IRF activity
- conditionsUsed: modulator concentration 10 µM; agonist: LPS 0.1 ug/mL
Reply briefly: the number, and no unit.

Entry COc1ccc2cc(Br)ccc2c1CC(N)=O needs its IRF reporter filled in; supply it. 1.07

Entry CC#CCn1c(N2CCCC(N)C2)nc2c1c(=O)n(Cc1nc(C)c3ccccc3n1)c(=O)n2C (stereo not given) needs its IRF reporter filled in; supply it. 1.23

Entry CCCC1CC(C(=O)NC(C(C)O)C2OC(SC)C(O)C(O)C2O)N(C)C1.Cl (stereo not given) needs its IRF reporter filled in; supply it. 1.24

Entry Nc1nonc1C(=O)NN=Cc1cc(Br)c(O)c(Br)c1 needs its IRF reporter filled in; supply it. 1.08

Entry O=C1CCC(=O)N1C1CC2CCC(C1)N2C(=O)c1cnccn1 (stereo not given) needs its IRF reporter filled in; supply it. 1.22

Entry Nc1ccccc1NC(=O)c1ccc(CNc2nccc(-c3cccnc3)n2)cc1 needs its IRF reporter filled in; supply it. 0.16

Entry CC1(C)C(=O)C2CC3(O)C4=CC(=O)OC(c5ccoc5)C4(C)CCC3C(C)(C2=O)C1CC(=O)O (stereo not given) needs its IRF reporter filled in; supply it. 1.51

Entry COc1ccc(OC)c(CN2CCCC(O)C2)c1 (stereo not given) needs its IRF reporter filled in; supply it. 1.07

Entry C=CCNC(=O)CN(Cc1ccccc1)S(=O)(=O)c1ccc(OC)c(OC)c1 needs its IRF reporter filled in; supply it. 1.11

Entry Cc1ccc(C=C2Oc3c(ccc(O)c3CN3CCN(CCO)CC3)C2=O)cc1 needs its IRF reporter filled in; supply it. 1.39

* * *

- Test system: RAW-Dual (murine macrophage reporter line)
- methodSummary: IRF reporter (Lucia luciferase) activity fold change vs agonist alone; higher = enhanced IRF activity
- conditionsUsed: modulator concentration 10 µM; agonist: LPS 0.1 ug/mL
# if value of IRF reporter reaches 1, tag Fulfilled; if it stays below, tag Not fulfilled

Worked cases, answers included:
Cc1ccc(S(=O)(=O)n2cnc3ccccc32)cc1C	Fulfilled
CCCc1cc(=O)[nH]c(=S)[nH]1	Fulfilled
CC(C)(C(=O)O)c1ccc(C(O)CCCN2CCC(C(O)(c3ccccc3)c3ccccc3)CC2)cc1.Cl (centres undefined)	Fulfilled
Cl.c1ccc(CC2=NCCN2)cc1	Fulfilled
CCOC(=O)C1=C(C)NC(=Cc2ccccc2[N+](=O)[O-])C1=O	Not fulfilled

Please check the record COc1cc(/C=C/C(=O)/C=C(O)/C=C/c2ccc(O)c(OC)c2)ccc1O and state if its IRF reporter is at or above 1. Not fulfilled

Please check the record N#Cc1nc(-c2ccc(COc3ccc(Cl)cc3)o2)oc1N1CCCCC1 and state if its IRF reporter is at or above 1. Fulfilled

Please check the record COc1ccc(C(=O)NCCOc2cc(C)cc(C)c2)cc1OC and state if its IRF reporter is at or above 1. Fulfilled

Please check the record Clc1cccc(OCCCOc2cccc3cccnc23)c1 and state if its IRF reporter is at or above 1. Fulfilled

Please check the record N#Cc1c(N=Cc2ccc(Br)cc2)sc2c1CCCC2 and state if its IRF reporter is at or above 1. Not fulfilled

Please check the record Cc1cc2c(C)cc[n+](CCCS(=O)(=O)[O-])c2cc1C and state if its IRF reporter is at or above 1. Fulfilled

Please check the record COc1ccc(C2N3CC4(C)CN2CC(C)(C3)C4O)cc1 (centres undefined) and state if its IRF reporter is at or above 1. Fulfilled

Please check the record CCCC1=NN2C(=N)C(=Cc3ccc(OCc4ccc(F)cc4)c(OCC)c3)C(=O)N=C2S1 and state if its IRF reporter is at or above 1. Fulfilled

Please check the record Oc1ccc(OCc2ccccc2)cc1 and state if its IRF reporter is at or above 1. Fulfilled

Please check the record c1ccc(CN2CCN(c3cc(-c4cccnc4)n[nH]3)CC2)cc1 and state if its IRF reporter is at or above 1. Fulfilled

* * *

- Tested on: RAW-Dual (murine macrophage reporter line)
- methodSummary: IRF reporter (Lucia luciferase) activity fold change vs agonist alone; higher = enhanced IRF activity
- conditionsUsed: modulator concentration 10 µM; agonist: LPS 0.1 ug/mL
Below is a list of entries, each paired with its recorded IRF reporter value.

# annotated cases, reported IRF reporter shown
CCOCCn1c(N2CCCN(C)CC2)nc2ccccc21	1.19
COc1ccc2c(c1)c(CC(=O)O)c(C)n2C(=O)c1ccc(Cl)cc1	1.25
CC(C)(C(=O)c1cccnc1)c1cccnc1	0.956
O=c1ccn([C@@H]2O[C@H](CO)[C@@H](O)[C@H]2O)c(=O)[nH]1	0.985
CCOC(=O)C1C(=O)C=C(C)C(C(=O)OCC)C1c1ccc(Br)cc1 (stereo unspecified)	1.3

Entry COc1cccc(-c2csc(NC(=O)C3CC3)n2)c1 needs its IRF reporter filled in; supply it. 1.26

* * *

- System: RAW-Dual (murine macrophage reporter line)
- methodSummary: viability score (confluency relative to resting cells, overnight) (fraction); higher = more viable, active = viable (0.7 or more)
- conditionsUsed: modulator concentration 10 µM
Below is a list of entries, each paired with its recorded viability score value.
Reply briefly: the number, and no unit.

# annotated cases, reported viability score shown
COc1ccc([N+](=O)[O-])cc1NC(=O)c1ccccc1SC	0.987
O=C(c1ccc(Cl)cc1)c1ccc(N2CCOCC2)c([N+](=O)[O-])c1	1
CS(=O)(=O)N(CC(=O)NCCSCc1cccc(Cl)c1)c1ccc(Cl)cc1	1
O=C(NCCNC(=O)c1ccccc1Cl)c1ccc(NC(=O)C2CC2)cc1	0.98
CC(=O)c1ccc2c3c([nH]c2c1)CCCC3	1.01
COc1ccccc1Cn1c(SC)nc2c(-c3ccccc3)c[nH]c2c1=O	0.948
CS(=O)(=O)N(CC(=O)NC1CC1)c1cccc2ccccc12	1.01
CCc1ccc(OCCSc2nc3ccccc3n2CCO)cc1	1.01

Entry Cc1ccc(N2C(=O)CC(Nc3ccc(N4CCOCC4)cc3)C2=O)cc1 (configuration not stated) needs its viability score filled in; supply it. 1.01

Entry Cc1ccc2[nH]c3nc(NN)nnc3c2c1 needs its viability score filled in; supply it. 1

Entry COc1ccc(C(C)NC(=O)CCc2nnc3ccc(-c4ccc(C)c(C)c4)nn23)cc1OC (configuration not stated) needs its viability score filled in; supply it. 1.01

Entry Cc1ccc(-c2nn(-c3ccccc3)cc2C=C(C#N)C(N)=O)o1 needs its viability score filled in; supply it. 0.966

Entry CC1c2cccc(O)c2C(=O)C2=C(O)C3(O)C(=O)C(C(N)=O)=C(O)C(N(C)C)C3C(O)C21.Cl (configuration not stated) needs its viability score filled in; supply it. 0.992

Entry CCCCc1nc(C)c(CC(=S)N(C)C)c(=O)n1Cc1ccc(-c2ccccc2-c2nnn[nH]2)cc1 needs its viability score filled in; supply it. 0.139

Entry O=C(O)c1cc(Nc2ccnc3cc(Cl)ccc23)ccc1O needs its viability score filled in; supply it. 1

Entry CC(Oc1cccc(Cl)c1)C(=O)NCc1ccncc1 (configuration not stated) needs its viability score filled in; supply it. 1.02

Entry CCOC(=O)C1=C(C)NC(C)=C(C(=O)OC)C1c1ccc(Cl)cc1 (configuration not stated) needs its viability score filled in; supply it. 0.598

Entry O=C1C(=CNCCN2CCOCC2)C(C(F)(F)F)=NN1c1nc2ccccc2s1 needs its viability score filled in; supply it. 1.01

Entry CC(Cc1ccccc1)NC(=O)C1COc2ccccc2O1 (configuration not stated) needs its viability score filled in; supply it. 0.919

Entry Cc1cc(C)nc(SCCCCSc2nc(C)cc(C)n2)n1 needs its viability score filled in; supply it. 0.996

Entry C=C(C)COc1ccc(-c2ncncc2-c2ccccc2)c(O)c1 needs its viability score filled in; supply it. 1

Entry Br.O=S(=O)(c1ccc(-c2csc(Nc3ccc(F)cc3)n2)cc1)N1CCOCC1 needs its viability score filled in; supply it. 0.997
